System: acetic acid-induced colitis
assay method text: acetic acid-induced colitis in rats: oxidative stress markers (PCC, TBARS) in colonic tissue
details: administered 30 minutes after induction of colitis; 5-ASA 100 mg/kg, LA 50 mg/kg, compounds 1 and 7 50 mg/kg; sacrificed 24 hr post induction; control 15 ± 3, AA alone 163 ± 14
value kind: TBARS (thiobarbituric acid reactive substrates), Post-treatment
Could you keep your reply to the number by itself?

# molecule, reported measurement
rows = [
    ("Cc1cc(O)c(C(=O)O)cc1/N=N\\c1ccc2c(c1)C(C)(C)N([O])C2(C)C [Compound 1]", 18),
]

So what does the record say about TBARS (thiobarbituric acid reactive substrates), Post-treatment for Nc1ccc(O)c(C(=O)O)c1 [Compound 5-ASA, 5-aminosalicylic acid, reference compound] ?
74

So what does the record say about TBARS (thiobarbituric acid reactive substrates), Post-treatment for O=C(O)CCCC[C@@H]1CCSS1 (racemic) [lipoic acid, reference compound] ?
64

So what does the record say about TBARS (thiobarbituric acid reactive substrates), Post-treatment for O=C(O)c1cc2[nH]c(CCCCC3CCSS3)nc2cc1O (stereo not shown) [Compound 7] ?
19
